Item-by-item account of pIC50
target: Recombinant human CSF1R kinase (Homo sapiens (Human), UniProt P07333); settings: Z-LYTE Tyr 1 peptide substrate
Sequence (P07333 20-972): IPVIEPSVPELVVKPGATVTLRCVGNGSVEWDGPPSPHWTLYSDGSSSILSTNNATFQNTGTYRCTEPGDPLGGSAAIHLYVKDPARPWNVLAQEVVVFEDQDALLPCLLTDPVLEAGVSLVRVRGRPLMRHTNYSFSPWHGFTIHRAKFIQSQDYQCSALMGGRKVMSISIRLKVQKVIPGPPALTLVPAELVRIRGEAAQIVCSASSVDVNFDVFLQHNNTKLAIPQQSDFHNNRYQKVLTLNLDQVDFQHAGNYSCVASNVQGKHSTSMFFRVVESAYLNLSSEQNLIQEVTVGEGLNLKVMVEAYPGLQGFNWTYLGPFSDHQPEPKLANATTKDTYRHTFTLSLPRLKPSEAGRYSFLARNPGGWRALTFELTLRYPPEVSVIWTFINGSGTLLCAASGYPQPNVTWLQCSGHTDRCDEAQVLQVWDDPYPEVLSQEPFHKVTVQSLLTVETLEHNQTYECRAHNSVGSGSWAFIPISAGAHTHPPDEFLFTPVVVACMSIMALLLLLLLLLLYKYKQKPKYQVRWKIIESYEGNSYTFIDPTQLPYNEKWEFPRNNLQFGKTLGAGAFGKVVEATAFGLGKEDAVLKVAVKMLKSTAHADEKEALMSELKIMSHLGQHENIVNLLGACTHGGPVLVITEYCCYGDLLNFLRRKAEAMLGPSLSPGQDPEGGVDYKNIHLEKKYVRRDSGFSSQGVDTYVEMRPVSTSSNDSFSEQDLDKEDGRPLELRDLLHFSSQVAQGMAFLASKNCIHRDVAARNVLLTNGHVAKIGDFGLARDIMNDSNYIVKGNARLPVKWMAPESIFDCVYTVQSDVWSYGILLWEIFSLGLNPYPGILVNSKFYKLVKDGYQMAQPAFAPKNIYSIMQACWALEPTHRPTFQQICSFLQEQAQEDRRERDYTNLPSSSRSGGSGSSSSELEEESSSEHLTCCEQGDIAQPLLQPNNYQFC
pIC50: −log10 of the molar value.
Metric name: pIC50

molecule="Cc1ncc(C(=O)Nc2ccc(Oc3ccnc(-c4cncn4C)c3)cn2)c(=O)n1C [Compound 31]" measured_result=6.16
molecule="CC(C)n1cccc(C(=O)Nc2ccc(Oc3ccnc(-c4nccn4C)c3)cn2)c1=O [Compound 102]" measured_result=7.44
molecule="Cn1cc(-c2cc(Oc3ccc(NC(=O)c4cnc(CCO)[nH]c4=O)nc3)ccn2)cn1 [Compound 132]" measured_result=6.70
molecule="Cc1ncc(-c2cc(Oc3ccc(NC(=O)c4cccn(C)c4=O)nc3)ccn2)s1 [Compound 114]" measured_result=7.38
molecule="COCCn1cccc(C(=O)Nc2ccc(Oc3ccnc(-c4cnn(C)c4)c3)cn2)c1=O [Compound 82]" measured_result=8.22

###

Item-by-item account of pIC50
target: Recombinant human CSF1R kinase (Homo sapiens (Human)); conditions: Z-LYTE Tyr 1 peptide substrate
pIC50: −log10 of the molar value.
Metric name: pIC50

compound="CC(C)n1c(N(C)C)ccc(C(=O)Nc2ccc(Oc3ccnc(-c4cnn(C)c4)c3)cn2)c1=O [Compound 1]" tested_on="Recombinant human CSF1R kinase (Homo sapiens (Human))" measured_result=6.66
compound="Cn1cc(-c2cc(Oc3ccc(NC(=O)c4cncn(C)c4=O)nc3)ccn2)cn1 [Compound 10]" tested_on="Recombinant human CSF1R kinase (Homo sapiens (Human))" measured_result=7.82
compound="CC(C)n1cccc(C(=O)Nc2ccc(Oc3ccnc(Nc4cnn(C)c4)c3)cn2)c1=O [Compound 96]" tested_on="Recombinant human CSF1R kinase (Homo sapiens (Human))" measured_result=8.10
compound="CCN1CCN(c2cc(Oc3ccc(NC(=O)c4cccn(C(C)C)c4=O)nc3)ccn2)CC1 [Compound 98]" tested_on="Recombinant human CSF1R kinase (Homo sapiens (Human))" measured_result=6.32
compound="Cc1ncc(C(=O)Nc2ccc(Oc3ccnc(-c4cn[nH]c4)c3)cn2)c(=O)n1C [Compound 130]" tested_on="Recombinant human CSF1R kinase (Homo sapiens (Human))" measured_result=7.68
compound="Cc1ncc(C(=O)Nc2ccc(Oc3ccnc(-c4cn(C)nc4O)c3)cn2)c(=O)n1C [Compound 135]" tested_on="Recombinant human CSF1R kinase (Homo sapiens (Human))" measured_result=7.92
compound="CCn1cc(-c2cc(Oc3ccc(NC(=O)c4cnc(C)n(C)c4=O)nc3)ccn2)cn1 [Compound 38]" tested_on="Recombinant human CSF1R kinase (Homo sapiens (Human))" measured_result=7.92
compound="Cn1cc(Nc2cc(Oc3ccc(NC(=O)c4cccn(C)c4=O)nc3)ccn2)cn1 [Compound 97]" tested_on="Recombinant human CSF1R kinase (Homo sapiens (Human))" measured_result=7.74
compound="Cc1ncc(C(=O)Nc2ccc(Oc3ccnc(-c4cnn(C)c4)c3)cn2)c(=O)[nH]1 [Compound 131]" tested_on="Recombinant human CSF1R kinase (Homo sapiens (Human))" measured_result=7.12
compound="Cc1ncc(C(=O)Nc2ccc(Oc3ccnc(-c4cnn(CCO)c4)c3)cn2)c(=O)n1C [Compound 113]" tested_on="Recombinant human CSF1R kinase (Homo sapiens (Human))" measured_result=7.47
compound="CC(C)n1cccc(C(=O)Nc2ncc(Oc3ccnc(-c4cnn(C)c4)c3)cc2C#N)c1=O [Compound 25]" tested_on="Recombinant human CSF1R kinase (Homo sapiens (Human))" measured_result=7.80
compound="Cn1nccc1Nc1cc(Oc2ccc(NC(=O)c3cc(F)cn(C)c3=O)nc2)ccn1 [Compound 77]" tested_on="Recombinant human CSF1R kinase (Homo sapiens (Human))" measured_result=8.22
compound="CC(C)n1cccc(C(=O)Nc2ccc(Oc3ccnc(-c4cnn(C)c4)c3)cc2F)c1=O [Compound 20]" tested_on="Recombinant human CSF1R kinase (Homo sapiens (Human))" measured_result=8.10
compound="Cc1ncc(C(=O)Nc2ccc(Oc3ccnc(Nc4ccn(C)n4)c3)cn2)c(=O)n1C [Compound 42]" tested_on="Recombinant human CSF1R kinase (Homo sapiens (Human))" measured_result=8.30
